Source of measurements: PubChem BioAssay (NCI)

Listed here: items and their measured TGI.
# System: DLD-1 colon
# PROCEDURE_TEXT: NCI tumour cell line growth inhibition, 48 h
PROPERTY: TGI

* CC[C@H]1CNC(=O)CC1CC(=O)OC (some centres not stated) | > 100 µM
* C[C@H](O)CCC(=O)c1ccoc1 | > 100 µM
* COC(=O)C(Cc1ccc2c(c1)OCO2)(NC(=O)c1ccccc1)P(=O)(OC)OC (configuration not stated) | > 100 µM
* CC(C)OP(=O)(OC(C)C)C(=Nc1ccc(N=C(NNc2ccc([N+](=O)[O-])cc2)P(=O)(OC(C)C)OC(C)C)cc1)NNc1ccc([N+](=O)[O-])cc1 | > 100 µM
* COc1cc(Br)c(C2OCCCO2)cc1OCc1ccccc1 | > 100 µM
* CC(=O)Nc1ccc(/C=C/C(=O)c2sc(-n3nc(-c4ccccc4)cc3-c3ccccc3)nc2C)cc1 | > 100 µM
* CCC[CH2][Sn]1([CH2]CCC)[O]C(=O)c2cccnc2[S]1 | 14.5 µM
* CCc1cccc(CC)c1NC1=CC(=O)C(=O)c2ccccc21 | 49.7 µM
* O=C(Nc1cc(Cl)ccc1Cl)c1cc2ccccc2oc1=O | > 100 µM
* Cc1c(Cl)ccc2[s+]snc12 | 62 µM
* O=C1N(c2ccccc2)C2(O)C(=O)c3ccccc3C2(O)N1c1ccccc1 (configuration not stated) | > 100 µM
* O=C(CC1(O)C(=O)Nc2ccc(Br)cc21)c1cccc([N+](=O)[O-])c1 (configuration not stated) | > 100 µM
* CC1CC(=O)C(CC(=O)O)[C@H]1C(C(=O)C(=O)Nc1cc(Cl)ccc1Cl)[N+](=O)[O-] (some centres not stated) | > 100 µM
* C=CC(C)(C)[C@@]12CC3C(=O)N[C@@H](Cc4ccccc4)C(=O)N3[C@@H]1N(C(C)=O)c1ccccc12 (some centres not stated) | > 100 µM
* COc1ccc(Cc2c3cc(OC)c(OC)cc3cc[n+]2C)cc1 | > 26.9 µM
* CCOc1ccc(/C=C/C(=O)c2sc(NNC(C)=O)nc2C)cc1 | > 100 µM
* CS(=O)c1cc(=O)c2ccccc2s1 (configuration not stated) | 5.6 µM

----------
# System: RPMI-8226 leukemia
# PROCEDURE_TEXT: NCI tumour cell line growth inhibition, 48 h; in the data active = GI50 below about 0.43 µM; inactive = the rest
Possible outcomes: Yes = active, No = inactive

* O=c1c2cc(F)ccc2sc2c(NCCCNCCO)nc3ccc(F)cc3c12 | No
* Nc1ncnc2c1ncn2C1SC(CO)C(O)C1O (centres undefined) | No
* CC1(C)CC[C@]2(C(=O)O)CC[C@]3(C)C(=CC[C@@H]4[C@@]5(C)C/C(=C/c6cccnc6)[C@H](O)C(C)(C)[C@@H]5CC[C@]43C)[C@@H]2C1 | No
* CCN(CC)CCCC(C)Nc1ccnc2cc(OC)ccc12 (centres undefined) | No
* N/C(=N\O)c1cn(C2OC(CO)C(O)C2O)c2ncnc(N)c12 (centres undefined) | Yes
* O=C(CNC(=O)c1cccc2ccccc12)Nc1ccccc1Oc1ccc(O)cc1 | No
* C=CN(C(=O)N1CCN(c2cc3c(cc2F)c(=O)c(C(=O)O)cn3C2CC2)CC1)c1nc(-c2ccc(C)cc2)cs1 | No
* Cc1cc(C)c(CNC(=O)c2cc(Cl)c3c(c2C)O[C@@](C)(C2CCC(N(C)C)CC2)O3)c(=O)[nH]1 (some centres undefined) | No
* COc1ccc2c(c1)OCC1c3cc(OC)ccc3OC21 (centres undefined) | No
